biological target: Acyl-[acyl-carrier-protein]--UDP-N-acetylglucosamine O-acyltransferase (Escherichia coli (strain K12)); assay: Fluorescence Polarization Assay; settings: pH 8
Sequence (P0A722 whole entry): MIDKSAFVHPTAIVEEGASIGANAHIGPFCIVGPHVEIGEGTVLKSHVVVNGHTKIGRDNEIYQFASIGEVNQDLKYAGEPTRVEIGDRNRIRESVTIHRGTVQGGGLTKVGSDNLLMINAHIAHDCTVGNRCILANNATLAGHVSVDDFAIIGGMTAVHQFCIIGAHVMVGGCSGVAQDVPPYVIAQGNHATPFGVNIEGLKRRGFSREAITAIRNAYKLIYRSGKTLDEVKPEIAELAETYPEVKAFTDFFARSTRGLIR
observation type: Kd (µM)

(1) H-TNLYML-OH [RJPXD33Δ6-COOH]
(2) H-TNLYML-NH2 [RJPXD33Δ6]
## Input Rank 1 against 2 by their Kd values and give the higher one. Lab log: write the label of the selected item as the result.
## Output 2
